Provenance of the data: paper PMC8880306

measurementDescription: Oral exposure
Type: in vivo, mice
measurementContext: male, SCID, mouse, plasma, 10 mg/kg

| compound | concentration at 3 h, nM |
| --- | --- |
| CC1(C)[C@H](NC(=O)c2ccc(N3CCN(CCNc4ccc5c(c4)C(=O)N(C4CCC(=O)NC4=O)C5=O)CC3)cc2)C(C)(C)[C@H]1Oc1ccc(C#N)c(Cl)c1 (stereo partly shown) | 1200 |

* * *

targetEntity: AR protein (Homo sapiens, UniProt P10275)
Sequence (P10275 whole entry): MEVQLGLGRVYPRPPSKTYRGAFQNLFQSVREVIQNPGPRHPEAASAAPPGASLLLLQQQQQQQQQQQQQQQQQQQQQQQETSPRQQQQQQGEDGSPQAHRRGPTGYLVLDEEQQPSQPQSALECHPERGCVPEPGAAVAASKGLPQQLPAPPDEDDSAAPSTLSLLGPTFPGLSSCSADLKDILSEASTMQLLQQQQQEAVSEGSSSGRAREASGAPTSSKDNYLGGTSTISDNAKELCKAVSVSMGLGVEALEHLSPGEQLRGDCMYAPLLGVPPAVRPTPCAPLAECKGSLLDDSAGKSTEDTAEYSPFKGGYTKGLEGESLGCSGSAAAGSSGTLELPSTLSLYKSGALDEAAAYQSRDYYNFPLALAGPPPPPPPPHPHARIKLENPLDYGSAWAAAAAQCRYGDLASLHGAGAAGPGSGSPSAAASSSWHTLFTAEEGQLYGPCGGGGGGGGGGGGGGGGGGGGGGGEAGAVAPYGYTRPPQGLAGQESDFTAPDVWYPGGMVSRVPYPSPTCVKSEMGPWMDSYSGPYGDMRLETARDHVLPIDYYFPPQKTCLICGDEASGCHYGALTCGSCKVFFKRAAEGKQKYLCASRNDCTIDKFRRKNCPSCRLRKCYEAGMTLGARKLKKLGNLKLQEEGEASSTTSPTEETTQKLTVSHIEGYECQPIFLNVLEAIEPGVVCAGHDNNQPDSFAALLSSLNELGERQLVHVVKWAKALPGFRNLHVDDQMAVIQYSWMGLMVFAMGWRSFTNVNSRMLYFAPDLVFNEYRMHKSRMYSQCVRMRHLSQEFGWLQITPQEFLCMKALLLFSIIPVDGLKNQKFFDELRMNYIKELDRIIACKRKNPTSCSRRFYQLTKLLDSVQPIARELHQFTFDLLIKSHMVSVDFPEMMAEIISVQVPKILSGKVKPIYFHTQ
measurementDescription: Western blotting of AR protein in VCaP cells
Assay type: cell-based
measurementContext: VCaP cell line
Measured treatment time for near-complete AR depletion accompanies every entry in the list below.
observationType: treatment time for near-complete AR depletion (h)

| molecule | recordedMeasurement |
| --- | --- |
| CC1(C)[C@H](NC(=O)c2ccc(N3CCC(CN4CCN(c5ccc6c(c5)C(=O)N(C5CCC(=O)NC5=O)C6=O)CC4)CC3)cc2)C(C)(C)[C@H]1Oc1ccc(C#N)c(Cl)c1 (stereo partly shown) [Compound 34] | 6 |
| CC1(C)[C@H](NC(=O)c2ccc(N3CCN(CC4CN(c5ccc6c(c5)C(=O)N(C5CCC(=O)NC5=O)C6=O)C4)CC3)cc2)C(C)(C)[C@H]1Oc1ccc(C#N)c(Cl)c1 (stereo partly shown) [Compound 26] | 6 |
| CC1(C)[C@H](NC(=O)c2ccc(N3CCN(CC4CCN(c5ccc6c(c5)C(=O)N(C5CCC(=O)NC5=O)C6=O)CC4)CC3)cc2)C(C)(C)[C@H]1Oc1ccc(C#N)c(Cl)c1 (stereo partly shown) [Compound 28] | 6 |
| CC1(C)[C@H](NC(=O)c2ccc(N3CCN(C4CCN(c5ccc6c(c5)C(=O)N(C5CCC(=O)NC5=O)C6=O)CC4)CC3)cc2)C(C)(C)[C@H]1Oc1ccc(C#N)c(Cl)c1 (stereo partly shown) [Compound 27] | 6 |

* * *

measurementDescription: Oral exposure
Format: in vivo, mice
measurementContext: male, SCID, mouse, plasma, 10 mg/kg
observationType: concentration at 6 h (nM)

| molecule | unitInfo | recordedMeasurement |
| --- | --- | --- |
| CC1(C)[C@H](NC(=O)c2ccc(N3CCN(CCNc4ccc5c(c4)C(=O)N(C4CCC(=O)NC4=O)C5=O)CC3)cc2)C(C)(C)[C@H]1Oc1ccc(C#N)c(Cl)c1 (stereo partly shown) [Compound 16] | nM | 800 |

* * *

measurementDescription: Oral exposure
Format: in vivo, mice
measurementContext: male, SCID, mouse, plasma, 10 mg/kg

| compound | concentration at 1 h / nM |
| --- | --- |
| CC1(C)[C@H](NC(=O)c2ccc(N3CCN(CCNc4ccc5c(c4)C(=O)N(C4CCC(=O)NC4=O)C5=O)CC3)cc2)C(C)(C)[C@H]1Oc1ccc(C#N)c(Cl)c1 (stereo partly shown) [Compound 16] | 1600 |
